molecular target: Human mGluR5 (Homo sapiens); assay: Fluorescence-based Ca2+ mobilization assay; conditions: HEK293 cell line permanently overexpressing mGluR5, Ca2+ level change induced by L-glutamate at EC80 concentration, FLIPR Tetra
Sequence (P41594 21-1212): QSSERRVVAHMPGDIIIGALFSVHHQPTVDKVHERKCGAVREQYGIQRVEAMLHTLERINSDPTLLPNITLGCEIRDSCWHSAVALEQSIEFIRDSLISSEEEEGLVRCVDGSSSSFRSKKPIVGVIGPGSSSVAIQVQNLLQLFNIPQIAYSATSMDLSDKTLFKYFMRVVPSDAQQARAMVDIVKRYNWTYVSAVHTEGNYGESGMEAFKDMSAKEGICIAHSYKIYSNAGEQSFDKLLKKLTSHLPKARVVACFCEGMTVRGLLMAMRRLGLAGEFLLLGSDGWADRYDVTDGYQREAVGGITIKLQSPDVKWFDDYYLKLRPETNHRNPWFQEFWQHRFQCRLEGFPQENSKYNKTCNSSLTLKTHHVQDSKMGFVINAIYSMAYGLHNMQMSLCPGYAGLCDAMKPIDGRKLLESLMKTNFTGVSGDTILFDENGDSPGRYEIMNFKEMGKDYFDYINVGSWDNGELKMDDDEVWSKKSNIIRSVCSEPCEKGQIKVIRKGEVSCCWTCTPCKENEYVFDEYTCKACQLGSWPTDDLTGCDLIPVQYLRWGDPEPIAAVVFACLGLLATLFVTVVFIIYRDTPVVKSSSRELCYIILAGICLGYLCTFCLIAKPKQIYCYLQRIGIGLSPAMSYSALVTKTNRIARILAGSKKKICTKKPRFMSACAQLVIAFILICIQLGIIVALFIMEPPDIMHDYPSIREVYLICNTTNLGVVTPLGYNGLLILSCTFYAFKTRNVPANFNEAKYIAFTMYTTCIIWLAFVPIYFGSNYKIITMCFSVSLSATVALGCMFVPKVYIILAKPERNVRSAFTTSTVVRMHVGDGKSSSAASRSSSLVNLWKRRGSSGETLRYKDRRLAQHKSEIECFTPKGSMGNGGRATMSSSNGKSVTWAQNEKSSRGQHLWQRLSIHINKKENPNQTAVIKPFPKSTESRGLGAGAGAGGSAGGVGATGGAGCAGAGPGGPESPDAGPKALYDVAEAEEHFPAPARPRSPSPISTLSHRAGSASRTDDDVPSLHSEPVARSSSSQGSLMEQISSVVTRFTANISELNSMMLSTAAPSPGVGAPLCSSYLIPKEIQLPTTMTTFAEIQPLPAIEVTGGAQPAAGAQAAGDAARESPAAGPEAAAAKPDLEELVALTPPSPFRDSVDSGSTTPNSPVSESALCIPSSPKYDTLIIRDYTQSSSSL
ASSAY_READOUT: IC50

Completed entries (count: 3):
CHEMICAL_STRING	SYSTEM	IC50
O=c1cc(-c2noc(C(F)F)n2)ccn1CC#Cc1cccc(Cl)c1	Human mGluR5 (Homo sapiens)	500 to 1000 nM
N#Cc1cccc(C#CCn2ccc(-c3nnc(C(F)F)o3)cc2=O)c1	Human mGluR5 (Homo sapiens)	500 to 1000 nM
Cc1cccc(C#CCn2ccc(-c3nnc(C(F)F)o3)cc2=O)n1	Human mGluR5 (Homo sapiens)	500 to 1000 nM

For O=c1cc(-c2nnc(C(F)F)o2)ccn1CC#Cc1ccnc(Cl)c1 on Human mGluR5 (Homo sapiens), measured IC50 was 1000 to 2000 nM

Simply: Cc1cc(-c2nnc(C(F)F)o2)cc(=O)n1CC#Cc1cccc(Cl)c1 , Human mGluR5 (Homo sapiens), IC50 = 500 to 1000 nM
